Entry source: patent US7022711B2

# Measurement Description: Metabolic stability, mice liver S9 fraction
# Format: in vitro ADME
# Study Conditions: mouse, liver S9 fraction; mice liver S9, 5 μM, 37° C., 1.0 mM NADPH; read-out: MS9 in vitro metabolic half-life
Task for the reader: assign each of the following compounds its reported half-life at 5 μM.
One number for each entry, in min.

Dear reader, for each entry below, please note its half-life at 5 μM.
1. CCN(CC)CCOc1ccc(Nc2ncc3cc(-c4c(Cl)cccc4Cl)c(=O)n(C)c3n2)cc1 [Reference A]
2. CCN(CC)CCOc1ccc(Nc2ncc3cc(-c4cc(OC)cc(OC)c4)c(=O)n(C)c3n2)cc1 [Reference B, reference compound]

Reply:
14
10

---

# Measurement Description: in vitro
# Study Conditions: human, Caco-2
Assay Endpoint: Papp A→B

Query: Read off the recorded Papp A→B for CCN(CC)CCOc1ccc(Nc2ncc3cc(-c4c(Cl)cccc4Cl)c(=O)n(C)c3n2)cc1 [Reference A]
Reply: 37.2 ×10⁻⁶ cm/s

---

# Tested on: Human umbilical vein endothelial cells (HUVECs)
# Measurement Description: Serum stimulated HUVEC cell proliferation (Sulphorhodamine B)
# Type: cell-based
# Study Conditions: Homo sapiens, HUVEC, 96 h; 2% serum growth medium, 4 days with compound
Assay Endpoint: IC50 (µM)
Numbers only, in µM.

Query: Read off the recorded IC50 for CCn1c(=O)c(-c2cc(OC)cc(OC)c2)cc2cnc(Nc3ccnc(Cl)c3)nc21 [Example 11]
Reply: 0.013

---

# Target Or System: c-Src (Homo sapiens, UniProt P12931)
# Construct: purchased Upstate Biotechnology, Lake Placid, N.Y
# Sequence (P12931 whole entry): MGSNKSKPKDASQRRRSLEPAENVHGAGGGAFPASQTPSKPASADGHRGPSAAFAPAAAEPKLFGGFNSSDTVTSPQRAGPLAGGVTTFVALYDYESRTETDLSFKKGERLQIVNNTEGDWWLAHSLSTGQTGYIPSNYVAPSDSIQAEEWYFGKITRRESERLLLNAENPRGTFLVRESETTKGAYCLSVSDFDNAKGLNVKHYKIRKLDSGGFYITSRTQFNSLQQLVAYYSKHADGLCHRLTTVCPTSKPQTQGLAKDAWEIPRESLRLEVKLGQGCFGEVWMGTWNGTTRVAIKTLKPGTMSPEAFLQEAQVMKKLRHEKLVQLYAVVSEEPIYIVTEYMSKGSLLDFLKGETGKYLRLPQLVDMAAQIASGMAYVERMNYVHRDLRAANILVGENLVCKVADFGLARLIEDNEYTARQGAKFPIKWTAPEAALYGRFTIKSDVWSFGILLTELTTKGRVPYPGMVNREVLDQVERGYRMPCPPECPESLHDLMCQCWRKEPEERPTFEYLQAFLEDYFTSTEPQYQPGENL
# Measurement Description: Kinase inhibition assay (DELFIA), c-Src
# Format: biochemical
# Study Conditions: 40 μM ATP, c-Src 3 units per reaction
Task for the reader: assign each of the following compounds its reported IC50.

{"columns": ["Compound", "Target Or System", "Assay Endpoint", "Assay Result"],
 "data": [
  ["CCn1c(=O)c(-c2cc(OC)cc(OC)c2)cc2cnc(Nc3cc(C)nc(C)c3)nc21", "c-Src (Homo sapiens, UniProt P12931)", "IC50", "> 4 µM"],
  ["CCN(CC)CCOc1ccc(Nc2ncc3cc(-c4cc(OC)cc(OC)c4)c(=O)n(C)c3n2)cc1 [Reference B, reference compound]", "c-Src (Homo sapiens, UniProt P12931)", "IC50", "1.34 µM"]
]}

API: the following record is the query input.
Query: Read off the recorded IC50 for CCn1c(=O)c(-c2cc(OC)cc(OC)c2)cc2cnc(Nc3ccnc(Cl)c3)nc21
Reply: > 4 µM

---

# Target Or System: FGFR-1 (Homo sapiens, UniProt P11362)
# Construct: The kinase domains from FGFR-1, VEGFR-2, Lck, and PDGF were purified from baculoviral vectors expression systems; made in house
# Sequence (P11362 478-767 limits assumed, species assumed): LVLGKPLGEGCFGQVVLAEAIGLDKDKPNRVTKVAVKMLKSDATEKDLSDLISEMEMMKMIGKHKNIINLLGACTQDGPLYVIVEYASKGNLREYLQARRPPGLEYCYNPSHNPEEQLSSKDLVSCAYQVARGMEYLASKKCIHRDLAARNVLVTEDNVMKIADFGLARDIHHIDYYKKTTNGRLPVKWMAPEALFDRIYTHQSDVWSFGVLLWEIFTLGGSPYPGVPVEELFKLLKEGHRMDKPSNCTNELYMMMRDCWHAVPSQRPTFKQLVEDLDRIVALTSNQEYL
# Measurement Description: Kinase inhibition assay (DELFIA), FGFr
# Type: biochemical
# Study Conditions: 40 μM ATP, kinase domain 20 nM
Task for the reader: assign each of the following molecules its reported IC50.
Numbers only, in µM.

# example entries with known answers
{"columns": ["Molecule", "Value Units", "IC50"],
 "data": [
  ["CCn1c(=O)c(-c2cc(OC)cc(OC)c2)cc2cnc(Nc3ccnc(Cl)c3)nc21", "µM", 0.0002],
  ["CCN(CC)CCOc1ccc(Nc2ncc3cc(-c4cc(OC)cc(OC)c4)c(=O)n(C)c3n2)cc1 [Reference B, reference compound]", "µM", 0.002]
]}

Query: Read off the recorded IC50 for CCn1c(=O)c(-c2cc(OC)cc(OC)c2)cc2cnc(Nc3cc(C)nc(C)c3)nc21
Reply: 0.0008
